Reference source for all entries: the OPERA property sets (Mansouri et al. 2018)

>  <compound>
Cc1cccc2ccccc12

>  <log10 biodegradation half-life (days)>
0.962

$$$$
>  <compound>
CCc1cc(C)cc(C)c1

>  <log10 biodegradation half-life (days)>
0.301

$$$$
>  <compound>
CCCCCCCCCCCCCCCCCCCCCCCCCCCCCCCCCC

>  <log10 biodegradation half-life (days)>
2.58

$$$$
>  <compound>
c1ccc2c(c1)Cc1ccccc1-2

>  <log10 biodegradation half-life (days)>
1.64

$$$$
>  <compound>
CC(C)Cc1ccccc1

>  <log10 biodegradation half-life (days)>
1

$$$$
>  <compound>
CCCCC(C)CCC (stereo unspecified)

>  <log10 biodegradation half-life (days)>
0.699

$$$$

----------
property.name: log10 vapour pressure (mmHg)

>  <molecule>
CC1=C(C(=O)Nc2ccccc2)S(=O)(=O)CCO1

>  <data.value>
-7.38

$$$$
>  <molecule>
CCCSP(=O)(OCC)Oc1cnn(-c2ccc(Cl)cc2)c1 (configuration not stated)

>  <data.value>
-7.92

$$$$
>  <molecule>
Fc1ccccc1C(F)(F)F

>  <data.value>
1.58

$$$$
>  <molecule>
Nc1ccc(O)cc1

>  <data.value>
-4.4

$$$$
>  <molecule>
Cc1ccnc(C)c1

>  <data.value>
0.5

$$$$
>  <molecule>
CC1(C)[C@@H]2CC[C@]1(C)[C@H](O)C2

>  <data.value>
-1.3

$$$$
>  <molecule>
CCCOC(=O)CC(C)C

>  <data.value>
0.413

$$$$
>  <molecule>
COc1cc(OC)nc(NC(=O)NS(=O)(=O)c2c(-c3nnn(C)n3)cnn2C)n1

>  <data.value>
-10.5

$$$$
>  <molecule>
CCCF

>  <data.value>
3.3

$$$$
>  <molecule>
O=[N+]([O-])C(F)(F)F

>  <data.value>
3.85

$$$$
>  <molecule>
CCCCC(C)C

>  <data.value>
1.82

$$$$
>  <molecule>
C=CC(C)(CCC=C(C)C)OC(C)=O (configuration not stated)

>  <data.value>
-0.955

$$$$
>  <molecule>
CCc1cc(C)ccc1C

>  <data.value>
-0.0272

$$$$
>  <molecule>
CCC(C)(C)c1ccc(O)cc1

>  <data.value>
-2.7

$$$$
>  <molecule>
Clc1cc2oc3c(Cl)c(Cl)ccc3c2c(Cl)c1Cl

>  <data.value>
-8.65

$$$$
>  <molecule>
CCCCCCCCCCCCCCC(=O)OC

>  <data.value>
-3.79

$$$$
>  <molecule>
NNc1ccccc1

>  <data.value>
-1.58

$$$$

----------
property.name: log10 vapour pressure (mmHg)

>  <compound>
Clc1ccc(C2(Cn3cncn3)CC(Br)CO2)c(Cl)c1 (centres undefined)

>  <property.name>
log10 vapour pressure (mmHg)

>  <data.value>
-7.52

$$$$
>  <compound>
c1ccc2c(c1)oc1ccccc12

>  <property.name>
log10 vapour pressure (mmHg)

>  <data.value>
-2.61

$$$$
>  <compound>
O=C(O)CCCCCCCC(=O)O

>  <property.name>
log10 vapour pressure (mmHg)

>  <data.value>
-7.97

$$$$
>  <compound>
CCOP(=O)(SC(C)CC)N1CCSC1=O (centres undefined)

>  <property.name>
log10 vapour pressure (mmHg)

>  <data.value>
-5.38

$$$$
